System: DMS 114
Assay: In vitro anti-proliferation assay (ATPlite)
Format: cell-based
Conditions: SCLC cell line DMS 114, about 72 hours; read-out: anti-proliferative IC50
Method: Cell antiproliferation is assayed by PerkinElmer ATPlite™ Luminescence Assay System. Briefly, the various test cancer cell lines are plated at a density of about 1×10^4 cells per well in Costar 96-well plates, and are incubated with different concentrations of compounds for about 72 hours in medium supplemented with 5% FBS. […] Finally, the luminescence is measured by a PerkinElmer TopCount® Microplate Scintillation Counter. […]

# COMPOUND, IC50 / µM
data = [
    ("N.N.[Cl][Pt][Cl] [Cisplatin, reference compound]", 5.95),
]

====

system: NCI-H69; assay: In vitro anti-proliferation assay (ATPlite); assay type: cell-based; details: Homo sapiens, NCI-H69, 72 h, SCLC cell line NCI-H69, about 72 hours; read-out: anti-proliferative IC50
pIC50: −log10 of the molar value.

# COMPOUND, MEASURED ON, pIC50
records = [
    ("C=CC(=O)Nc1ccc(C(=O)Nc2cc3cc(c2)Nc2nccc(n2)-c2cccc(c2)OCC/C=C/CN(C)C3)cc1 [CY-16-1]", "NCI-H69", 7.49),
]
